The measurements presented in this section are drawn from paper PMC2229510.

- measurement target: aspartate receptor EQQE receptor–kinase signaling complex (Salmonella typhimurium, UniProt P02941, E302Q/Q295E)
- test details: in vitro receptor-coupled kinase assay, attractant titration, EQQE receptor
measurement kind: pIC50
FYI, pIC50 means -log10 of a concentration in mol per litre.

Identify pIC50 associated with the compound CC(N)(CC(=O)O)C(=O)O (racemic) [α-methyl-aspartate, α-methyl-D,L-aspartate]
4.85

====

- measurement target: aspartate receptor EEQQ receptor–kinase signaling complex (Salmonella typhimurium, UniProt P02941, E491Q/Q295E)
- test details: in vitro receptor-coupled kinase assay, attractant titration, EEQQ receptor
measurement kind: IC50 (µM)
API: value field is a number in µM; no unit string.

Identify IC50 associated with the compound CC(N)(CC(=O)O)C(=O)O (racemic) [α-methyl-aspartate, α-methyl-D,L-aspartate]
19

====

- measurement target: aspartate receptor QEEE receptor–kinase signaling complex (Salmonella typhimurium, UniProt P02941, Q309E)
- test details: in vitro receptor-coupled kinase assay, attractant titration, QEEE receptor
measurement kind: pIC50
FYI, pIC50 means -log10 of a concentration in mol per litre.

Identify pIC50 associated with the compound CC(N)(CC(=O)O)C(=O)O (racemic) [α-methyl-aspartate, α-methyl-D,L-aspartate]
5.05

====

- measurement target: aspartate receptor EEEQ receptor–kinase signaling complex (Salmonella typhimurium, UniProt P02941, E491Q/Q295E/Q309E)
- test details: in vitro receptor-coupled kinase assay, attractant titration, EEEQ receptor
measurement kind: pIC50
FYI, pIC50 means -log10 of a concentration in mol per litre.

Identify pIC50 associated with the compound CC(N)(CC(=O)O)C(=O)O (racemic) [α-methyl-aspartate, α-methyl-D,L-aspartate]
5.05

====

- measurement target: aspartate receptor QQQE receptor–kinase signaling complex (Salmonella typhimurium, UniProt P02941, E302Q)
- test details: in vitro receptor-coupled kinase assay, attractant titration, QQQE receptor
measurement kind: IC50 (µM)
API: value field is a number in µM; no unit string.

Identify IC50 associated with the compound CC(N)(CC(=O)O)C(=O)O (racemic) [α-methyl-aspartate, α-methyl-D,L-aspartate]
98

====

- measurement target: aspartate receptor QQQQ receptor–kinase signaling complex (Salmonella typhimurium, UniProt P02941, E302Q/E491Q)
- test details: in vitro receptor-coupled kinase assay, attractant titration, QQQQ receptor
measurement kind: pIC50
FYI, pIC50 means -log10 of a concentration in mol per litre.

Identify pIC50 associated with the molecule CC(N)(CC(=O)O)C(=O)O (racemic) [α-methyl-aspartate, α-methyl-D,L-aspartate]
4.01

====

- measurement target: aspartate receptor QQEQ receptor–kinase signaling complex (Salmonella typhimurium, UniProt P02941, E302Q/E491Q/Q309E)
- test details: in vitro receptor-coupled kinase assay, attractant titration, QQEQ receptor
measurement kind: pIC50
FYI, pIC50 means -log10 of a concentration in mol per litre.

Identify pIC50 associated with the compound CC(N)(CC(=O)O)C(=O)O (racemic) [α-methyl-aspartate, α-methyl-D,L-aspartate]
4.27

====

- measurement target: aspartate receptor EEQE receptor–kinase signaling complex (Salmonella typhimurium, UniProt P02941, Q295E)
- test details: in vitro receptor-coupled kinase assay, attractant titration, EEQE receptor
measurement kind: IC50 (µM)
API: value field is a number in µM; no unit string.

Identify IC50 associated with the molecule CC(N)(CC(=O)O)C(=O)O (racemic) [α-methyl-aspartate, α-methyl-D,L-aspartate]
23

====

- measurement target: aspartate receptor EQEE receptor–kinase signaling complex (Salmonella typhimurium, UniProt P02941, E302Q/Q295E/Q309E)
- test details: in vitro receptor-coupled kinase assay, attractant titration, EQEE receptor
measurement kind: pIC50
FYI, pIC50 means -log10 of a concentration in mol per litre.

Identify pIC50 associated with the molecule CC(N)(CC(=O)O)C(=O)O (racemic) [α-methyl-aspartate, α-methyl-D,L-aspartate]
4.80
